B1: TPR t1 (parent)
chain: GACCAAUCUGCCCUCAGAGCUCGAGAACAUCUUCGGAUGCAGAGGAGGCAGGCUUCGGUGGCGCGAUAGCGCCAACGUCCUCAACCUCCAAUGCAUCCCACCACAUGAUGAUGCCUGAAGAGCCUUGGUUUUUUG

Variants of: B1
Assay: polymerase ribozyme fitness, log enrichment relative to wild type (log ratio); higher = more active; in vitro selection for triplet polymerase activity
Below, each of the variants is paired with its reported polymerase ribozyme fitness (log ratio) value.
observable: polymerase ribozyme fitness (log ratio)

- sequence data: "GACCAAUCUGCCCUCAGAGUUCGAGAACAUCUUCGUAUGCAGAGGAGGCAGGCUUCGGUGGCGCGAUAGUGCCAACGUCCUCAACCUCCAAUGCAUCCCACCACAUGAUGAUGCCUGAAGAGCCUUGGUUUUUUU [C20U G36U C70U G135U]"
  observable: "polymerase ribozyme fitness (log ratio)"
  reported value: -3.95
- sequence data: "GACCAAUCUGCCCUCAGAGCACGAGAACAUCUUCGGAUGCAGUGGAGGCAGGCUUCGGUGUCGCGAUAGCGCCAACGUCCUCAACCUCCAAUGCAUCCCACAACAUGAUGAUGCCUGAAGAGCCUUGGUUUUUUG [U21A A43U G61U C102A]"
  observable: "polymerase ribozyme fitness (log ratio)"
  reported value: -4.93
- sequence data: "GACCAAUCUGCCCUCAGAGCUCGAGAACAUCUUCGGAUGCAGAGGAGGCAGGCUUCGGUGGCGCGAUAGCGCCAACGUCCUCAACCUCCAAUGCAUCCCACCACAUGAUGAUGACUGAAGAGCCUUGGUUAUUUG [C114A U131A]"
  observable: "polymerase ribozyme fitness (log ratio)"
  reported value: -0.246
- sequence data: "GACCAAUCUGGCGUCAGAGCUCGAGAACAUCUUCGGAUGCAGAGGAGGCAGGCUUUGGUGGCGCGAUAGCGCCAACGUCCUCAACCUCCAAUACAUCCCACCACAUGAUGAUGCCUGAAGAGCCUUGGUUUUUUG [C11G C13G C56U G93A]"
  observable: "polymerase ribozyme fitness (log ratio)"
  reported value: -0.689
- sequence data: "GACCAAUCUGCCCUCAGAGCUCGAGAACAUUUUCGCAUGCAGAGGAGGCAGGCUUCGGUGACGCGAUAGCGCCAACGUCCUCAACCUCCAAUGCAUCCCACCACAUGAUGAUGCCUGAAGAGCCUUGGUUUUUUG [C31U G36C G61A]"
  observable: "polymerase ribozyme fitness (log ratio)"
  reported value: -4.05
- sequence data: "GACCAAUCUGCCCUCAGAGCUCGAGAACAUCUUCGGAUGCAGAGGAGGCAGGCUUCGGUGGCGCGAUAGGGCCAACGUCCUCAACCUACAAUGCAUCCCACCACAUGAUGAUGCCUGAAGAGCCUUGGUUUUUUG [C70G C88A]"
  observable: "polymerase ribozyme fitness (log ratio)"
  reported value: -4.74
- sequence data: "GACCAAUCUGCGCUCAGAGCUCGAGAACACCUUCGGAUGCUGAGGAGACAGGCUUCGGUGGCGCGAUAGCGCCAACGUCCUCAACCUCCAAUGCAUCCCACCACAUGAUGAUGCCUGAAGAGCCUUGGUUUUUUG [C12G U30C A41U G48A]"
  observable: "polymerase ribozyme fitness (log ratio)"
  reported value: -5.05
- sequence data: "GACCAAUCUGCCCUCGGAGCUCGAGAACAUCUUCGGAUGCAGGGGAGGCAGGCUUCGGUGGCGCGAUAGCGCCAACGUCCUCAACCUCCAAUGCAUCCCACCACAUGAUGAUGCCUGAAGAGCUAUGGUUUUUUG [A16G A43G C124U U125A]"
  observable: "polymerase ribozyme fitness (log ratio)"
  reported value: -1.48
- sequence data: "GACCAAUCUGCCCUCAGAGCUCGAGUACAUCUUCGGAUGCAGAGGAGGCAGGCUUCGGUGGCGCGAUAGCGCCAACGUCCUCCACCUCCAAUGCAUCCCACCACAUGAUGAUGCCUGAAGAGCCUUGGUUUUUUG [A26U A83C]"
  observable: "polymerase ribozyme fitness (log ratio)"
  reported value: -3.24
